molecular target: Tyk2 kinase activity on STAT4 in NK92 cells (Homo sapiens, UniProt P29597); assay: pSTAT4 cell assay (MSD; NK92 cells, 30 ng/mL IL2 stimulation); assay type: cell-based; conditions: 30 ng/mL IL2, 15 minutes
Sequence (P29597 whole entry): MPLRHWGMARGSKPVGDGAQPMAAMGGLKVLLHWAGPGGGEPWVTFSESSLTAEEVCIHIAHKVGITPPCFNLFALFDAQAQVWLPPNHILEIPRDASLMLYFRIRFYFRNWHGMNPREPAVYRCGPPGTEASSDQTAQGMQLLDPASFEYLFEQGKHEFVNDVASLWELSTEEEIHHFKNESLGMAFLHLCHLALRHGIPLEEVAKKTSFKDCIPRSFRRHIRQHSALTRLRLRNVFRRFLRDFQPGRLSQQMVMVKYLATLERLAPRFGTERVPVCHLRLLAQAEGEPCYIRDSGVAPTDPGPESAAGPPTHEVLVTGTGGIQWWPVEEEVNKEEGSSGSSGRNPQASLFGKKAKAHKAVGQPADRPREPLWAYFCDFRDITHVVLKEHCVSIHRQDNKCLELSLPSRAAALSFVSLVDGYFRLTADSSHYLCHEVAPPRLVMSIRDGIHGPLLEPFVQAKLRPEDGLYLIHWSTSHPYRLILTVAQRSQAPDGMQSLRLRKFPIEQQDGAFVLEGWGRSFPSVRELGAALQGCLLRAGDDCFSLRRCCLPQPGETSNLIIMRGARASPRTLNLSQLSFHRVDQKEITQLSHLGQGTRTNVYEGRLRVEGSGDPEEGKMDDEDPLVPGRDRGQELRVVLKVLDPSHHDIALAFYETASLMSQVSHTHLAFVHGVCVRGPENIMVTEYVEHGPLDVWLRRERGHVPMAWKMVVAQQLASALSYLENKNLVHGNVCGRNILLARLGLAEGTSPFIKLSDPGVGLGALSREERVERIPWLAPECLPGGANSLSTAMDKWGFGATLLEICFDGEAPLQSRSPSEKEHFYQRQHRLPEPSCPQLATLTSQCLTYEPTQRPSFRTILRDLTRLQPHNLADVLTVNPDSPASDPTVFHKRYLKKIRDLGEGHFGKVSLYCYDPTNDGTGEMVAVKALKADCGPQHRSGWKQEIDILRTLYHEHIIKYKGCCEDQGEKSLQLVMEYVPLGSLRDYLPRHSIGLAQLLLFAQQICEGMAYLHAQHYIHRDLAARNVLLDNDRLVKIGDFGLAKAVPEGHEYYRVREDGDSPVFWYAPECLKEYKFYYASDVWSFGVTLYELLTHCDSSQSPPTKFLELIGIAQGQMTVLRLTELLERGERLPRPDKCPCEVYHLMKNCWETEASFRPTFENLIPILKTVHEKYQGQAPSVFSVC
Where a name gives a salt, the structure may show the parent alone.
Measured IC50, listed per entry for reference.

Here's what some known entries look like.
{"columns": ["molecule", "value-reported"],
 "data": [
  ["C[C@@H]1CN(c2nc(-c3cnn(C)c3)cn3nccc23)C(=O)[C@]1(C#N)C1CC1", "20 to 50 nM"],
  ["C[C@@H]1CN(c2nc(-c3ccc(S(C)(=O)=O)nc3)cn3nccc23)C(=O)[C@]1(C#N)C1CC1 [Example 257, trifluoroacetate]", "> 100 nM"],
  ["COc1ccc(-c2cc3c(N4C[C@@H](C)[C@@](C#N)(C5CC5)C4=O)ccnn3c2)cn1", "> 100 nM"],
  ["C[C@@H]1CN(c2ccnn3cc(-c4cnn(C(F)F)c4)cc23)C(=O)[C@]1(C#N)C1CC1", "20 to 50 nM"],
  ["C[C@@H]1CN(c2ccnn3cc(-n4ccnc4)cc23)C(=O)[C@]1(C#N)C1CC1", "> 100 nM"]
]}

Bench note: what IC50 did C[C@@H]1CN(c2ccnn3cc(-n4cc(C5CN(C)CCO5)cn4)cc23)C(=O)[C@]1(C#N)C1CC1 (stereo partly shown) show?
> 100 nM

Requested field: IC50. Item: C[C@@H]1CN(c2ccnc3cc(-c4cnn(C56CC(C5)C6)c4)oc23)C(=O)[C@]1(C#N)C1CC1
> 100 nM

I would be grateful if you could share the reported IC50 for C[C@@H]1CN(c2ccnn3cc(-c4cnn(C5CCN(C)CC5)c4)cc23)C(=O)[C@]1(C#N)C1CC1 .
50 to 100 nM
